Test system: HIV activation in OM-10.1 cells
Test: Inhibition of activation of latent HIV in OM-10.1 cells
Assay type: cell-based, HIV-1
Conditions: Human immunodeficiency virus 1, chronically HIV-infected promyelocytic clone
OBSERVED PROPERTY: pIC50
Please express pIC50 as -log10 of the molar concentration.

Sample COc1ccc2c(c1)c(OC(C)C)c(C(N)=O)n2C ; pIC50 observed: 6.10
